system: recRSV A2-L19FD489E-fireSMASh; assay: microbe, parasite or virus in culture; type: cell-based, Respiratory Syncytial Virus; conditions: human respiratory syncytial virus, 384-well, four replicate screens, mean ± SD, BEAS-2B co-infection, read-out: % Inhibition (anti-RSV)
# maps each entry to its inhibition at 5 µM
endpoint-label: inhibition at 5 µM (%)

>>> test_value("COC(=O)C[C@](O)(CCCC(C)(C)O)C(=O)O[C@@H]1C(OC)=C[C@]23CCCN2CCc2cc4c(cc2[C@H]13)OCO4")
98
>>> test_value("COc1cc([C@@H]2c3cc4c(cc3[C@@H](O[C@@H]3O[C@@H]5CO[C@@H](C)O[C@H]5[C@H](O)[C@H]3O)[C@H]3COC(=O)[C@H]23)OCO4)cc(OC)c1O [Etoposide]")
80
>>> test_value("CC(=O)[C@]1(O)Cc2c(O)c3c(c(O)c2[C@@H](O[C@H]2C[C@H](N)[C@H](O)[C@H](C)O2)C1)C(=O)c1ccccc1C3=O")
95

====

experiment: in vitro; settings: human
# maps each entry to its CC50
endpoint-label: CC50

>>> test_value("Nc1nc(N)c2nc(CNc3ccc(C(=O)N[C@@H](CCC(=O)O)C(=O)O)cc3)cnc2n1")
"10 µM"
>>> test_value("CCOC(=O)C1=C(C)NC(C)=C(C(=O)OC)C1c1cccc([N+](=O)[O-])c1 (centres unmarked)")
"> 10 µM"
>>> test_value("Nc1nc(N)c2nc(-c3ccccc3)c(N)nc2n1")
"> 10 µM"
>>> test_value("NC(=O)c1ncn([C@@H]2O[C@H](CO)[C@@H](O)[C@H]2O)n1")
"> 10 µM"
>>> test_value("CC(=O)N[C@H]1[C@H]([C@H](O)[C@H](O)CO)OC(C(=O)O)=C[C@@H]1N=C(N)N")
"> 10 µM"
>>> test_value("CC1=C(/C=C/C(C)=C/C=C/C(C)=C/C(=O)Nc2ccc(O)cc2)C(C)(C)CCC1 [Fenretinide]")
"> 10 µM"
>>> test_value("Cc1c(-c2ccc(-c3ccccc3F)cc2)nc2ccc(F)cc2c1C(=O)O")
"> 10 µM"
>>> test_value("CC(C)[C@]12O[C@H]1[C@@H]1O[C@]13[C@]1(O[C@H]1C[C@H]1C4=C(CC[C@@]13C)C(=O)OC4)[C@@H]2O [Triptolide]")
"0.3 µM"
>>> test_value("Nc1ccn([C@@H]2O[C@H](CO)[C@@H](O)C2(F)F)c(=O)n1")
"> 10 µM"
>>> test_value("COc1cc2nc(N3CCCN(C)CC3)nc(NC3CCN(Cc4ccccc4)CC3)c2cc1OC")
"> 10 µM"
>>> test_value("c1cnc2c(c1)ccc1cccnc12")
"2.4 µM"
